# System: SN12C renal
# assay remarks: NCI-60 one-dose screen, 48 h
# stated conditions: 10 µM
The panel holds about 83,000 compounds, 20% with a hit somewhere; the sample as a whole holds those more often. Active and inactive are the calls of the source. The calls were made as follows: active = growth percent below 10; inactive = the rest.
Labels: active, inactive

[[record]]
compound = "NS(=O)(=O)Oc1ccc(NC(=O)C2CCCCCC2)cc1"
subject_of_test = "SN12C renal"
class_assignment = "inactive"

[[record]]
compound = "O=C(O)c1cn(C2CC2)c2cc(N3CCN(C(=O)c4cc(-c5ccc(Cl)cc5)nc5ccccc45)CC3)c(F)cc2c1=O"
subject_of_test = "SN12C renal"
class_assignment = "inactive"

[[record]]
compound = "COC(=O)C1(O)NC(=C(C#N)C#N)C(C#N)=C1C(=O)c1ccc(OC)c(OC)c1 (stereo not drawn)"
subject_of_test = "SN12C renal"
class_assignment = "inactive"

[[record]]
compound = "Nc1nc(-c2cccnc2)nc2c1sc(=S)n2-c1ccccc1"
subject_of_test = "SN12C renal"
class_assignment = "inactive"

[[record]]
compound = "Cc1cc(CCNC=O)c(C)c2c1sc1ccccc12"
subject_of_test = "SN12C renal"
class_assignment = "inactive"

[[record]]
compound = "COc1ccc(/C(=N\\N)C(=O)c2ccccc2)cc1 (tested in a mixture with another compound)"
subject_of_test = "SN12C renal"
class_assignment = "inactive"

[[record]]
compound = "COc1cc(/C=C/c2cc(/C=C/c3ccc(O)c(OC)c3)n(C(=O)Nc3ccccc3Cl)n2)ccc1O"
subject_of_test = "SN12C renal"
class_assignment = "inactive"

[[record]]
compound = "CN(C)CCCSc1ccccc1NC1=C(Cl)C(=O)C(Nc2ccccc2SCCCN(C)C)=C(Cl)C1=O"
subject_of_test = "SN12C renal"
class_assignment = "active"

[[record]]
compound = "Cc1ccc(/C=C2/C(=O)N(C)c3ccc(S(=O)(=O)Nc4ccc(C(C)(C)C)cc4)cc32)s1"
subject_of_test = "SN12C renal"
class_assignment = "inactive"

[[record]]
compound = "COc1cc(NC(=O)Nc2cnc(Nc3ccc(N4CCOCC4)cc3)nc2Oc2cccc(OC)c2)cc(OC)c1"
subject_of_test = "SN12C renal"
class_assignment = "inactive"

[[record]]
compound = "CCCN(CCC)C(=O)[C@H](CC)[C@@H]1CC[C@@H](C)[C@@H]([C@H](C)[C@@H](O)[C@@H](C)C(=O)[C@H](CC)C2O[C@]3(C=C[C@@H](O)[C@]4(CC[C@@](C)([C@H]5CC[C@](O)(CC)[C@H](C)O5)O4)O3)[C@H](C)C[C@@H]2C)O1 (stereo partly drawn)"
subject_of_test = "SN12C renal"
class_assignment = "active"

[[record]]
compound = "O=C1c2ccccc2C(=O)N1CCCCNc1ccccc1"
subject_of_test = "SN12C renal"
class_assignment = "inactive"

[[record]]
compound = "Cc1cc(Cl)ccc1Nc1nc(C(F)(F)F)ccc1C(=O)N/N=C/c1cccc(O)c1"
subject_of_test = "SN12C renal"
class_assignment = "inactive"

[[record]]
compound = "Cc1cn(-c2cc(F)cc(NC(=O)c3ccc(C)c(Nc4nccc(-c5cccnc5)n4)c3)c2)cn1"
subject_of_test = "SN12C renal"
class_assignment = "inactive"

[[record]]
compound = "CC[C@@H](C(=O)[C@H](C)[C@H](O)[C@@H](C)[C@H]1O[C@H]([C@@H](CC)C(=O)O)CC[C@H]1C)C1O[C@]2(C=C[C@@H](O)[C@]3(CC[C@@](C)([C@H]4CC[C@](O)(CC)[C@H](C)O4)O3)O2)[C@H](C)C[C@@H]1C (stereo partly drawn)"
subject_of_test = "SN12C renal"
class_assignment = "inactive"

[[record]]
compound = "CN(C)CCN(Cc1ccccc1)c1ccc2ccccc2n1"
subject_of_test = "SN12C renal"
class_assignment = "inactive"

[[record]]
compound = "COc1ccccc1-n1c(-c2sc(NC(C)=O)nc2C)n[nH]c1=S"
subject_of_test = "SN12C renal"
class_assignment = "inactive"

[[record]]
compound = "CSc1ccc(-c2cc(-c3ccc(NC(=O)CCCN4CCCC4)cc3)nc(-c3ccc(NC(=O)CCCN4CCCC4)cc3)c2)cc1"
subject_of_test = "SN12C renal"
class_assignment = "inactive"


----------
# Tested on: MCF7 breast
# assay remarks: NCI-60 one-dose screen, 48 h
# stated conditions: 10 µM
Compounds without any hit were thinned out: in the full panel of roughly 83,000, 20% have a hit. Activity calls are given as the source filed them. The calls were made as follows: active = growth percent below 10; inactive = the rest.
Labels: T for active, F for inactive

[[record]]
molecule = "Cc1cccc(N=Cc2ccccc2O)c1C"
subject_of_test = "MCF7 breast"
class_assignment = "F"

[[record]]
molecule = "CN(C)CCOc1ccc(-c2nc3sccn3c2-c2ccnc(S(C)(=O)=O)n2)cc1"
subject_of_test = "MCF7 breast"
class_assignment = "F"

[[record]]
molecule = "O=C1/C=C/[C@@H](O)[C@@H]2C[C@@H](O)C[C@H]2/C=C/CCC[C@H](C(F)(F)F)O1"
subject_of_test = "MCF7 breast"
class_assignment = "T"

[[record]]
molecule = "COc1ccc(C(=O)c2ccccc2CN2C(=O)c3ccccc3C2=O)cc1"
subject_of_test = "MCF7 breast"
class_assignment = "F"

[[record]]
molecule = "COc1cccc2ccc(CC(O)(c3ccccc3)c3ccccc3)nc12"
subject_of_test = "MCF7 breast"
class_assignment = "F"

[[record]]
molecule = "CC(C)(C)OC(=O)CN1CCc2c(sc3ncnc(N/N=C/c4cccc5ccccc45)c23)C1"
subject_of_test = "MCF7 breast"
class_assignment = "T"

[[record]]
molecule = "CCNc1nc(C(F)(F)F)nc2c1sc(=S)n2-c1ccccc1"
subject_of_test = "MCF7 breast"
class_assignment = "F"

[[record]]
molecule = "c1ccc2c(c1)Cc1ccccc1N2CCN1CCCCC1"
subject_of_test = "MCF7 breast"
class_assignment = "F"

[[record]]
molecule = "COc1ccc(-c2nn(-c3cccc(Cl)c3)cc2/C=C2\\NC(=S)N(c3ccc(Cl)cc3)C2=O)cc1"
subject_of_test = "MCF7 breast"
class_assignment = "F"

[[record]]
molecule = "COc1ccc(-c2nn(-c3cccc(Cl)c3)cc2-c2c(C#N)c(N)n(N)c(=O)c2C#N)cc1"
subject_of_test = "MCF7 breast"
class_assignment = "F"

[[record]]
molecule = "COc1cc(-c2nn(-c3ccc(NC(=O)NCCCNC(=O)c4ccccc4)cc3)cc2-c2ccncc2)ccc1Cl"
subject_of_test = "MCF7 breast"
class_assignment = "F"

[[record]]
molecule = "Cc1c(O)c(=O)ccn1C1CCC(CC2CCC(n3ccc(=O)c(O)c3C)CC2)CC1 (stereo not drawn)"
subject_of_test = "MCF7 breast"
class_assignment = "F"

[[record]]
molecule = "CCCN(CCC)C(=O)[C@H](CC)[C@@H]1CC[C@@H](C)[C@@H]([C@H](C)[C@@H](O)[C@@H](C)C(=O)[C@H](CC)C2O[C@]3(C=C[C@@H](O)[C@]4(CC[C@@](C)([C@H]5CC[C@](O)(CC)[C@H](C)O5)O4)O3)[C@H](C)C[C@@H]2C)O1 (stereo partly drawn)"
subject_of_test = "MCF7 breast"
class_assignment = "T"

[[record]]
molecule = "Cc1ccc(N=Nc2ccccc2)cc1"
subject_of_test = "MCF7 breast"
class_assignment = "F"

[[record]]
molecule = "COC(=O)c1cc2oc(/C=C3/SC(=S)N(N)C3=O)cc2n1Cc1ccccc1"
subject_of_test = "MCF7 breast"
class_assignment = "F"

[[record]]
molecule = "CO[C@H]1CC(O[C@@H]2/C(C)=C/C[C@@H]3C[C@@H](C[C@]4(C=C[C@H](C)[C@@H](C5CCCCC5)O4)O3)OC(=O)[C@@H]3C=C(C)[C@@H](O)[C@H]4OC/C(=C\\C=C\\[C@@H]2C)[C@]43O)O[C@@H](C)C1O[C@H]1C[C@H](OC)[C@@H](O)[C@H](C)O1 (stereo partly drawn)"
subject_of_test = "MCF7 breast"
class_assignment = "T"

[[record]]
molecule = "CC(=O)OC/C=C(/C)C[P+](c1ccccc1)(c1ccccc1)c1ccccc1"
subject_of_test = "MCF7 breast"
class_assignment = "F"

[[record]]
molecule = "CC(C1=C(CN(C(=O)Cc2cn(-c3ccccc3)nc2-c2ccc(Cl)cc2)C(C)C)Cc2ccccc21)c1ccccn1 (stereo not drawn)"
subject_of_test = "MCF7 breast"
class_assignment = "F"

[[record]]
molecule = "CCCCN1C(=O)CC(SC2CC(=O)N(CCCC)C2=O)C1=O (stereo not drawn)"
subject_of_test = "MCF7 breast"
class_assignment = "F"

[[record]]
molecule = "COc1cc(OC)c2c(=O)c(O)c(-c3ccccc3)oc2c1"
subject_of_test = "MCF7 breast"
class_assignment = "F"

[[record]]
molecule = "C[C@@H](O)[C@H]1C(=O)N2C(C(=O)O)=C(SCCN=CN)C[C@H]12"
subject_of_test = "MCF7 breast"
class_assignment = "T"

[[record]]
molecule = "CCOC(=O)c1cc(C(=O)c2ccc(OC)c(OC)c2)n2ccncc12"
subject_of_test = "MCF7 breast"
class_assignment = "F"

[[record]]
molecule = "N=C1S/C(=C/c2ccc(-c3ccc4c(c3)C(=O)NC4=O)o2)C(=O)N1c1ccc(Br)cc1"
subject_of_test = "MCF7 breast"
class_assignment = "T"

[[record]]
molecule = "O=C(CCCCNC(=O)c1nc(-c2ccccc2)n(-c2ccccc2)n1)NO"
subject_of_test = "MCF7 breast"
class_assignment = "F"

[[record]]
molecule = "OCC1OC(n2cnc3c(NCc4ccco4)ncnc32)C(O)C1O (stereo not drawn)"
subject_of_test = "MCF7 breast"
class_assignment = "T"

[[record]]
molecule = "N#Cc1c(-c2ccc(Cl)cc2)csc1NC(=O)Nc1ccc(Cl)c(C(F)(F)F)c1"
subject_of_test = "MCF7 breast"
class_assignment = "T"

[[record]]
molecule = "CCOC(=O)/C(=C(\\C)N)C1CC(=O)NC1=O (stereo not drawn)"
subject_of_test = "MCF7 breast"
class_assignment = "F"

[[record]]
molecule = "CN(C)c1ccc(/C=N/NC(=O)c2ccccc2Nc2cccc(C(F)(F)F)c2)cc1"
subject_of_test = "MCF7 breast"
class_assignment = "F"

